# test-target: human glucagon receptor (Glucagon-R) (human, UniProt P47871 26-477)
# Sequence (P47871 26-477): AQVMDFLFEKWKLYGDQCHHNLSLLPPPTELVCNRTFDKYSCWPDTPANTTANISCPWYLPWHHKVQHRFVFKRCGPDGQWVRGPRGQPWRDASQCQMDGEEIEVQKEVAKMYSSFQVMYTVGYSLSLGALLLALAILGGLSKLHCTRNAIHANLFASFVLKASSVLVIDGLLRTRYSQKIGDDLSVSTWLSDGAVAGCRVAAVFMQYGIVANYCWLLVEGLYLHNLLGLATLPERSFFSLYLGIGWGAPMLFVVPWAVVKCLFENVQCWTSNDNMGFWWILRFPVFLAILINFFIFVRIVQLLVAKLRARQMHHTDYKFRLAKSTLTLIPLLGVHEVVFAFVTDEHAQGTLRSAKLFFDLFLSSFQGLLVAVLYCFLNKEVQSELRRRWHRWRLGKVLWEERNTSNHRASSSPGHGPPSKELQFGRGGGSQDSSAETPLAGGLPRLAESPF
# test-details: cell-based or functional assay
Starred links: 1 amine or outer side, 2 acyl side, 3 side chain; linkers in the order of their positions; H or OH if unused. Non-standard residues stand in square brackets, D forms with d. Groups on a side chain read outwards from the residue. *: point of attachment. γGlu = O=C(O)[C@H](CCC(=O)[*:2])N[*:1]; Palmitoyl = CCCCCCCCCCCCCCCC(=O)*; Ac4c = NC1(C(=O)O)CCC1
For each record, write down the corresponding EC50 hGCGR CHO-K1 [nM] (cAMP, AlphaScreen).
Value expressed in nM; do not type the unit.

Record summary for H-HAQGTFTSDYSKYLDEK([γGlu-Palmitoyl])AAKDFIEWLESA-NH2 [Compound 11: H-HAQGTFTSDYSKYLDE-K(Hexadecanoyl-isoGlu)-AAKDFIEWLESA-NH2] : reported EC50 hGCGR CHO-K1 [nM] (cAMP, AlphaScreen) = 0.69

Record summary for HTQGTFTSDYSKYLDEKAAKDFIEWLESA (position 2 is Abu ((S)-2-aminobutyric acid); Lys17 side chain conjugated to hexadecanoyl-isoGlu; C-terminal amide (NH2)) [Compound 10: H-H-Abu-QGTFTSDYSKYLDE-K(Hexadecanoyl-isoGlu)-AAKDFIEWLESA-NH2] : reported EC50 hGCGR CHO-K1 [nM] (cAMP, AlphaScreen) = 0.1

Record summary for HXQGTFTSDYSKYLDEKAAKDFIEWLESA (position 2 is DAla (D-alanine); Lys17 side chain conjugated to hexadecanoyl-isoGlu; C-terminal amide (NH2)) [Compound 12: H-H-DAla-QGTFTSDYSKYLDE-K(Hexadecanoyl-isoGlu)-AAKDFIEWLESA-NH2] : reported EC50 hGCGR CHO-K1 [nM] (cAMP, AlphaScreen) = 1.27

Record summary for H-H[Ac4c]HGTFTSDYSKYLDEK([γGlu-Palmitoyl])AAKDFIEWLESA-NH2 [Compound 15: H-H-Ac4c-HGTFTSDYSKYLDE-K(Hexadecanoyl-isoGlu)-AAKDFIEWLESA-NH2] : reported EC50 hGCGR CHO-K1 [nM] (cAMP, AlphaScreen) = 0.1
